Recorded measurements of one-hybrid fitness for binding NBS DNA, one per entry
B1: Caulobacter ParB omega fusion; a variant is named by its letters at X, in order, B8GW30 (parent)
chain: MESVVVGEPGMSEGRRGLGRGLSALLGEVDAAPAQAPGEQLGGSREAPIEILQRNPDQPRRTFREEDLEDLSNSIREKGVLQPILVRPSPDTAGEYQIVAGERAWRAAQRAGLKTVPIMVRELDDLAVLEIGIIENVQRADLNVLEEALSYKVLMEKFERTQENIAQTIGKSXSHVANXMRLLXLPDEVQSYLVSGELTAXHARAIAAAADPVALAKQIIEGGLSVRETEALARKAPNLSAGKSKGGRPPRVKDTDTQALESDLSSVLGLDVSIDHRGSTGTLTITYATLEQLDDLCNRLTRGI

Variants of: B1
Experiment Description: one-hybrid fitness for binding NBS DNA (the Noc-binding site; scaled: cognate 1, non-cognate 0); higher = stronger binding
Condition Description: with NBS DNA site
Over roughly 81,000 sequences, “one-hybrid fitness for binding NBS DNA” has its median near -0.1; the highest 2% begin near 0.36. Shown is part of a subset that was picked to be rich in the highest values.

Mutation Id: KWAC
one-hybrid fitness for binding NBS DNA: ≤ 0.2
//
Mutation Id: LVKR
one-hybrid fitness for binding NBS DNA: ≤ 0.2
//
Mutation Id: QQRT
one-hybrid fitness for binding NBS DNA: 0.8
//
Mutation Id: QQET
one-hybrid fitness for binding NBS DNA: 0.371
//
Mutation Id: QGVT
one-hybrid fitness for binding NBS DNA: ≤ 0.2
//
Mutation Id: SGRG
one-hybrid fitness for binding NBS DNA: ≤ 0.2
//
Mutation Id: QCGT
one-hybrid fitness for binding NBS DNA: 0.558
//
Mutation Id: QIRR
one-hybrid fitness for binding NBS DNA: 0.867
//
Mutation Id: DKKT
one-hybrid fitness for binding NBS DNA: ≤ 0.2
//
Mutation Id: QPRR
one-hybrid fitness for binding NBS DNA: 0.365
//
Mutation Id: YRRI
one-hybrid fitness for binding NBS DNA: ≤ 0.2
//
Mutation Id: WMIP
one-hybrid fitness for binding NBS DNA: ≤ 0.2
//
Mutation Id: KQWT
one-hybrid fitness for binding NBS DNA: ≤ 0.2
//
Mutation Id: SLHE
one-hybrid fitness for binding NBS DNA: ≤ 0.2
//
Mutation Id: QPVT
one-hybrid fitness for binding NBS DNA: 0.269
//
Mutation Id: QKKT
one-hybrid fitness for binding NBS DNA: 0.774
//
Mutation Id: QHGS
one-hybrid fitness for binding NBS DNA: 0.343
//
Mutation Id: QQLD
one-hybrid fitness for binding NBS DNA: ≤ 0.2
//
Mutation Id: SMIR
one-hybrid fitness for binding NBS DNA: ≤ 0.2
//
Mutation Id: KQRT
one-hybrid fitness for binding NBS DNA: 0.225
//
Mutation Id: NLKT
one-hybrid fitness for binding NBS DNA: ≤ 0.2
//
Mutation Id: QQLT
one-hybrid fitness for binding NBS DNA: 0.45
//
Mutation Id: QQWC
one-hybrid fitness for binding NBS DNA: ≤ 0.2
//
Mutation Id: QQEI
one-hybrid fitness for binding NBS DNA: ≤ 0.2
//
Mutation Id: EDMY
one-hybrid fitness for binding NBS DNA: ≤ 0.2
//
Mutation Id: NLQI
one-hybrid fitness for binding NBS DNA: ≤ 0.2
//
Mutation Id: QKVG
one-hybrid fitness for binding NBS DNA: ≤ 0.2
//
Mutation Id: QAWY
one-hybrid fitness for binding NBS DNA: ≤ 0.2
//
Mutation Id: QIYR
one-hybrid fitness for binding NBS DNA: 0.348
//
Mutation Id: WNVE
one-hybrid fitness for binding NBS DNA: ≤ 0.2
//
Mutation Id: MFAL
one-hybrid fitness for binding NBS DNA: ≤ 0.2
//
Mutation Id: PERM
one-hybrid fitness for binding NBS DNA: ≤ 0.2
//
Mutation Id: HHVS
one-hybrid fitness for binding NBS DNA: ≤ 0.2
//
Mutation Id: LPAH
one-hybrid fitness for binding NBS DNA: ≤ 0.2
//
Mutation Id: HAHM
one-hybrid fitness for binding NBS DNA: ≤ 0.2
//
Mutation Id: QPYR
one-hybrid fitness for binding NBS DNA: ≤ 0.2
//
Mutation Id: SVNS
one-hybrid fitness for binding NBS DNA: ≤ 0.2
//
Mutation Id: QQWT
one-hybrid fitness for binding NBS DNA: 0.44
//
Mutation Id: VNLC
one-hybrid fitness for binding NBS DNA: ≤ 0.2
//
Mutation Id: RNYQ
one-hybrid fitness for binding NBS DNA: ≤ 0.2
//
Mutation Id: SRKF
one-hybrid fitness for binding NBS DNA: ≤ 0.2
//
Mutation Id: QWRR
one-hybrid fitness for binding NBS DNA: 0.355
//
Mutation Id: LRQC
one-hybrid fitness for binding NBS DNA: ≤ 0.2
//
Mutation Id: YNMS
one-hybrid fitness for binding NBS DNA: ≤ 0.2
//
Mutation Id: KSRN
one-hybrid fitness for binding NBS DNA: ≤ 0.2
//
Mutation Id: QCRR
one-hybrid fitness for binding NBS DNA: 1.13
